# phospho-S6 immunofluorescence (z-score) per entry
System: MDA-MB-468
Procedure Text: phospho-S6 immunofluorescence (DAPI-normalised), per-plate z-score; higher = higher phospho-S6 signal (less pathway suppression)
Measurement Setup: co-treatment: GDC0941 450 nM; 24 h
Where a name gives a salt, the structure may show the parent alone.
Give the figure only, with no unit attached.

input: Using MDA-MB-468 as the test system, report measured phospho-S6 immunofluorescence (z-score) of O=C(O[C@H]1CN2CCC1CC2)N(Cc1cc(F)c(F)c(F)c1)c1cccc(F)c1 [Tarafenacin (D-tartrate)] (compound 10 µM) .
output: 0.34

input: Using MDA-MB-468 as the test system, report measured phospho-S6 immunofluorescence (z-score) of CCN(CCCCO)C(C)Cc1ccc(O)cc1 (configuration not stated) [O-desmethyl Mebeverine alcohol (hydrochloride)] (compound 10 µM) .
output: -0.73

input: Using MDA-MB-468 as the test system, report measured phospho-S6 immunofluorescence (z-score) of CCN(CC)C(=O)c1ccc(C2=CC3(CCNCC3)Oc3cccc(O)c32)cc1 (compound 10 µM) .
output: 0.32

input: Using MDA-MB-468 as the test system, report measured phospho-S6 immunofluorescence (z-score) of O=Cc1cn(Cc2ccc(Cl)cc2)c2ccccc12 [Oncrasin-1] (compound 10 µM) .
output: -3.49

input: Using MDA-MB-468 as the test system, report measured phospho-S6 immunofluorescence (z-score) of C[N+]1(C)[C@@H]2C[C@@H](OC(=O)[C@H](CO)c3ccccc3)C[C@H]1[C@@H]1O[C@@H]12 [Methscopolamine (bromide)] (compound 10 µM) .
output: 0.05

input: Using MDA-MB-468 as the test system, report measured phospho-S6 immunofluorescence (z-score) of COc1ccc2c(c1OC)CN1CCc3cc4c(cc3C1C2)OCO4 (configuration not stated) [Tetrahydroberberine] (compound 10 µM) .
output: -0.04

input: Using MDA-MB-468 as the test system, report measured phospho-S6 immunofluorescence (z-score) of C[N@+]1(CC2CC2)CC[C@]23c4c5ccc(O)c4O[C@H]2C(=O)CC[C@@]3(O)[C@H]1C5 [Methylnaltrexone (Bromide)] (compound 10 µM) .
output: 0.46
